Every entry's value here was drawn from paper PMC2756588.

# System tested: T1, Pin3, Q06449
# T1 sequence (Q06449 53-122, looked up): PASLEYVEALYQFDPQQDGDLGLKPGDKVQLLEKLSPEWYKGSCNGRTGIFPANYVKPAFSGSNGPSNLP
# Assay remarks: SPOT array
# Measurement parameters: median of control spots 2171

# Binder, SPOT intensity
rows = [
    ("NSVPIMPTLPPRPYI", 28),
    ("HHKRRPTTIDVPGLT", 28),
    ("LLIRWLILMPLVGSR", 47),
    ("YRRKSIPFAPHQITA", 9),
    ("ISRRRLPVIMHRLKM", 27),
    ("TSFKGRPKPPKTLKH", 4),
    ("GAGERPRLVPRPINV", 5),
    ("KTKQQKPAIPQKKSF", 3),
    ("FFRRSELYLPNSSKA", 1),
    ("IFLRISINFPLNYPN", 101),
    ("ATKSASPTLPTRRSR", 20),
    ("RKRRTHLRLPLIRSN", 3),
    ("RRSKSLPTTPGIRSG", 5),
    ("GQYRRTIVIPRRFFT", 18),
    ("LFMKGTPEFPKSGFS", 40),
]
